Every entry's value here was drawn from patent US7157452B2.

Each entry below carries its reported pIC50.
testedTarget: purified recombinant human PARP (Homo sapiens)
Construct: purchased Trevigan (Gaithersburg, Md.)
Sequence (P09874 whole entry): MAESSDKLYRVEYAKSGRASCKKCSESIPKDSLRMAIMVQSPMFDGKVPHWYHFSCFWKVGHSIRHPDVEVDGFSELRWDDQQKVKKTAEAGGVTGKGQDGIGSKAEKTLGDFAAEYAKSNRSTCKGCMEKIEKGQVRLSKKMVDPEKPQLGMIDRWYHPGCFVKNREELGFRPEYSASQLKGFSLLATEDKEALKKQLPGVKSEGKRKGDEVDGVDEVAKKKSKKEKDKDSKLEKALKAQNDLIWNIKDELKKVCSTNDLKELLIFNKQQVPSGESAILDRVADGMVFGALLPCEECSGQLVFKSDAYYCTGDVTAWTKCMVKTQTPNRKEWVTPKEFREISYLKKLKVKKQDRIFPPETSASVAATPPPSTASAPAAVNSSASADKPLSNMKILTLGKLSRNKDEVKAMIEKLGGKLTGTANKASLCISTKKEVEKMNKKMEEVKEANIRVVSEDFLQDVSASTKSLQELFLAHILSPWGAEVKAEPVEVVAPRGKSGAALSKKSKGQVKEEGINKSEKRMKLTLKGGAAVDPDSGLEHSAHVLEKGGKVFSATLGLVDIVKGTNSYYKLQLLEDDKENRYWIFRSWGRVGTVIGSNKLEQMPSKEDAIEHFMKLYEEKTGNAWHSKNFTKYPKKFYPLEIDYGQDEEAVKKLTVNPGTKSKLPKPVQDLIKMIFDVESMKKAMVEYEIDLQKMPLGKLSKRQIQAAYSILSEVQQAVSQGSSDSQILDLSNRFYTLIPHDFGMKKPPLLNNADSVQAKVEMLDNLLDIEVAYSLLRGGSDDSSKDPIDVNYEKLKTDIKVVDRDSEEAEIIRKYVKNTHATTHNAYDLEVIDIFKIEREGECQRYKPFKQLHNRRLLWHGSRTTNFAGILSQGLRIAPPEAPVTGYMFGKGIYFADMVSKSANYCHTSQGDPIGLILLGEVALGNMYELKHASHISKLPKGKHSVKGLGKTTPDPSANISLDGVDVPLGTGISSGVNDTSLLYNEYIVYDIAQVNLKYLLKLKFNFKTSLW
experimentalDetails: PARP enzyme assay with [3H]NAD, scintillation counting
Type: biochemical
cond: Table III; read-out: approximate IC50
pIC50: −log10 of the molar value.
measuredParameter: pIC50

[[record]]
compound = "CCN(CC)CCCNS(=O)(=O)c1ccc2[nH]c(=O)c3cccc4c3c2c1C4"
observedvalue = 7.04

[[record]]
compound = "O=C(CN1CCC(N2CCCC2)CC1)Nc1ccc2[nH]c(=O)c3cccc4c3c2c1C4"
observedvalue = 7.03

[[record]]
compound = "O=c1[nH]c2ccc(S(=O)(=O)N3CCN(c4ccc(C(F)(F)F)cc4)CC3)c3c2c2c(cccc12)C3"
observedvalue = 6.57

[[record]]
compound = "CN(C)CCN(C)CC(=O)Nc1ccc2[nH]c(=O)c3cccc4c3c2c1C4"
observedvalue = 7.26

[[record]]
compound = "CN1CCN(CC(=O)Nc2ccc3[nH]c(=O)c4cccc5c4c3c2C5)CC1"
observedvalue = 7.35

[[record]]
compound = "O=c1[nH]c2ccc(S(=O)(=O)N3CCN(c4ccc(F)cc4F)CC3)c3c2c2c(cccc12)C3"
observedvalue = 6.68

[[record]]
compound = "CN1CCCC(CN2CCN(CC(=O)Nc3ccc4[nH]c(=O)c5cccc6c5c4c3C6)CC2)C1 (centres unmarked)"
observedvalue = 6.75

[[record]]
compound = "CN(C)CCN(C)S(=O)(=O)c1ccc2[nH]c(=O)c3cccc4c3c2c1C4"
observedvalue = 6.81

